Catalogue of IC50 values
target: CXCR3 (Macaca fascicularis, UniProt A0A2K5UV19); experiment: functional cellular assay measuring calcium flux in CXCR3 transfected cells (block of CXCR3/IP-10 interaction); assay type: cell-based, Cyno; conditions: IP-10 induced intracellular calcium flux; Cyno-CHO cells stably expressing recombinant CXCR3 and G-alpha-16; IP-10 at EC80; read-out: IC50
Sequence (A0A2K5UV19 entry or part of it): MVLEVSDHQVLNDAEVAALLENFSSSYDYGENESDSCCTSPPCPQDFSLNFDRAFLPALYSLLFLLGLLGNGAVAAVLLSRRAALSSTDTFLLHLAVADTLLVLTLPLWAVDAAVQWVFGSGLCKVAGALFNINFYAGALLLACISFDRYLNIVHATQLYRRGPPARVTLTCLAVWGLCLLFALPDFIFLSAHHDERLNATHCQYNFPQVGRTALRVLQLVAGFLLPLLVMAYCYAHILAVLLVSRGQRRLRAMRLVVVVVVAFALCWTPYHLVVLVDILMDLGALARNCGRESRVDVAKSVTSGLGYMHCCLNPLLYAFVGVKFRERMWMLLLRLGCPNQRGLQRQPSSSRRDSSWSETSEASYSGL
READOUT: IC50 (nM)

- COMPOUND: "Cc1cc(C)n(CC(=O)N2CCN(c3ccc(F)cc3-c3cnc(N4CCC(S(C)(=O)=O)CC4)nc3)CC2)n1"
  READOUT: "IC50"
  MEASURED: 11
- COMPOUND: "C[C@H]1CN(c2ccc(F)cc2C(=O)Nc2nc3c(s2)CN(C)CC3)CCN1C(=O)Cn1ccc2cccnc21"
  READOUT: "IC50"
  MEASURED: 17
- COMPOUND: "O=C(Cn1c(=O)[nH]c2ccccc21)N1CCN(c2ccc(F)cc2-c2cnc(N3CCOCC3)nc2)CC1"
  READOUT: "IC50"
  MEASURED: 11
- COMPOUND: "CC1CN(c2ccccc2-c2cnc(S(C)(=O)=O)nc2)CCN1C(=O)CN1Cc2ccccc2C1=O (stereo not drawn)"
  READOUT: "IC50"
  MEASURED: 293
- COMPOUND: "CC1CN(c2ccc(C(F)(F)F)cc2-c2cnc(S(C)(=O)=O)nc2)CCN1C(=O)Cn1cnc2cccnc21 (stereo not drawn)"
  READOUT: "IC50"
  MEASURED: 189
- COMPOUND: "COc1ncc(-c2cc(C#N)ccc2N2CCN(C(=O)Cn3ccc4cccnc43)CC2)cn1"
  READOUT: "IC50"
  MEASURED: 7
- COMPOUND: "COc1ncc(-c2ccccc2N2CCN(C(=O)Cn3ccc4ccccc43)CC2)cn1"
  READOUT: "IC50"
  MEASURED: 44
- COMPOUND: "CN1CCN(c2ncc(-c3cc(F)ccc3N3CCN(C(=O)Cn4c(=O)[nH]c5ccccc54)CC3)cn2)CC1"
  READOUT: "IC50"
  MEASURED: 14
- COMPOUND: "Cc1cc(C)n(CC(=O)N2CCN(c3ccccc3-c3ccc(C#N)cc3)CC2)n1"
  READOUT: "IC50"
  MEASURED: 100
- COMPOUND: "CNc1ncc(-c2ccccc2N2CCN(C(=O)Cn3nc(C)cc3C)CC2)cn1"
  READOUT: "IC50"
  MEASURED: 34
- COMPOUND: "COc1ncc(-c2ccccc2N2CCN(C(=O)Cn3ccc4cc(F)cnc43)CC2)cn1"
  READOUT: "IC50"
  MEASURED: 8
- COMPOUND: "CSc1ncc(-c2cc(C(F)(F)F)ccc2N2CCN(C(=O)Cn3ccc4cccnc43)CC2)cn1"
  READOUT: "IC50"
  MEASURED: 9
- COMPOUND: "O=C(Cn1ccc2ccncc21)N1CCN(c2ccc(F)cc2-c2cnc(N3CCCC3)nc2)CC1"
  READOUT: "IC50"
  MEASURED: 14
- COMPOUND: "O=C(Cn1ccc2cccnc21)N1CCN(c2ccc(F)cc2-c2cnc(N3CCCC3)nc2)CC1"
  READOUT: "IC50"
  MEASURED: 15
- COMPOUND: "Cc1cc(C)n(CC(=O)N2CCN(c3ccc(C(F)(F)F)cc3-c3cnc(N4CCC(S(C)(=O)=O)CC4)nc3)CC2C)n1 (stereo not drawn)"
  READOUT: "IC50"
  MEASURED: 7
- COMPOUND: "CC1CN(c2ccccc2-c2cnc(N3CCC(O)CC3)nc2)CCN1C(=O)Cn1ccc2ccncc21 (stereo not drawn)"
  READOUT: "IC50"
  MEASURED: 8
- COMPOUND: "O=C(Cn1c(=O)[nH]c2ccccc21)N1CCN(c2ccccc2-c2ccccc2)CC1"
  READOUT: "IC50"
  MEASURED: 140
- COMPOUND: "Cc1cc(C)n(CC(=O)N2CCN(c3ccccc3-c3cnc(N4CCCC(F)C4)nc3)CC2)n1 (stereo not drawn)"
  READOUT: "IC50"
  MEASURED: 8

---

target: CXCR3 (Macaca fascicularis); assay: functional cellular assay measuring calcium flux in CXCR3 transfected cells (block of CXCR3/IP-10 interaction); format: cell-based, Cyno; conditions: IP-10 induced intracellular calcium flux; Cyno-CHO cells stably expressing recombinant CXCR3 and G-alpha-16; IP-10 at EC80; read-out: IC50
pIC50: −log10 of the molar value.
Catalogue of pIC50 values
READOUT: pIC50

- COMPOUND: "O=C(Cn1ccc2cccnc21)N1CCN(c2ccccc2-c2cnc(N3CCCOCC3)nc2)CC1"
  READOUT: "pIC50"
  MEASURED: 8.05
- COMPOUND: "CS(=O)(=O)C1CCN(c2ncc(-c3cc(F)ccc3N3CCN(C(=O)Cn4cnc5cccnc54)CC3)cn2)CC1"
  READOUT: "pIC50"
  MEASURED: 8.00
- COMPOUND: "COc1cc(NC(=O)c2cc(F)ccc2N2CCN(C(=O)CN(C)C(=O)C(C)C)[C@@H](C)C2)ccn1"
  READOUT: "pIC50"
  MEASURED: 7.96
- COMPOUND: "CSc1ncc(-c2ccccc2N2CCN(C(=O)Cn3nc(C)cc3C)CC2)cn1"
  READOUT: "pIC50"
  MEASURED: 8.00
- COMPOUND: "Cc1cc(C)n(CC(=O)N2CCN(c3ccccc3-c3cnc(N4CC(C)CC(C)C4)nc3)CC2)n1 (centres unmarked)"
  READOUT: "pIC50"
  MEASURED: 7.85
- COMPOUND: "Cc1cc(C)n(CC(=O)N2CCN(c3ccc(F)cc3-c3cnc(S(C)(=O)=O)nc3)CC2C)n1 (centres unmarked)"
  READOUT: "pIC50"
  MEASURED: 6.80
- COMPOUND: "CC1CN(c2ccccc2-c2cnc(N3CCC(O)CC3)nc2)CCN1C(=O)Cn1c(=O)[nH]c2ccccc21 (centres unmarked)"
  READOUT: "pIC50"
  MEASURED: 8.10
- COMPOUND: "Cc1cc(C)n(CC(=O)N2CCN(c3ccccc3-c3cnc(N4CCC(C)(C)CC4)nc3)CC2)n1"
  READOUT: "pIC50"
  MEASURED: 7.92
- COMPOUND: "COc1cc(NC(=O)c2cc(F)ccc2N2CCN(C(=O)CN(C)C(=O)c3ncoc3C)[C@@H](C)C2)ccn1"
  READOUT: "pIC50"
  MEASURED: 7.96
- COMPOUND: "Cc1cc(C)n(CC(=O)N2CCN(c3ccc(C(F)(F)F)cc3-c3cnc(S(C)(=O)=O)nc3)CC2C)n1 (centres unmarked)"
  READOUT: "pIC50"
  MEASURED: 7.25
- COMPOUND: "CSc1ncc(-c2cc(C(F)(F)F)ccc2N2CCN(C(=O)Cn3nc(C)cc3C)CC2)cn1"
  READOUT: "pIC50"
  MEASURED: 8.30
- COMPOUND: "Cc1cc(C)n(CC(=O)N2CCN(c3ccccc3-c3cnc(N4C[C@H]5CC[C@@H]4C5)nc3)CC2)n1"
  READOUT: "pIC50"
  MEASURED: 8.40
- COMPOUND: "O=C(Cn1ccc2cccnc21)N1CCN(c2ccccc2N2Cc3ccccc3C2=O)CC1"
  READOUT: "pIC50"
  MEASURED: 7.32
- COMPOUND: "COc1cc(NC(=O)c2cc(F)ccc2N2CCN(C(=O)Cn3ccc4cccnc43)[C@H](C)C2)ccn1"
  READOUT: "pIC50"
  MEASURED: 8.05
- COMPOUND: "COc1ccc(-c2ccccc2N2CCN(C(=O)Cn3nc(C)cc3C)CC2)cn1"
  READOUT: "pIC50"
  MEASURED: 7.24
- COMPOUND: "C[C@@H]1CN(c2ccc(F)cc2C(=O)Nc2nc3c(s2)CN(C)CC3)CCN1C(=O)Cn1cnc2cccnc21"
  READOUT: "pIC50"
  MEASURED: 7.82
- COMPOUND: "CS(=O)(=O)C1CCN(c2ncc(-c3cc(F)ccc3N3CCN(C(=O)Cn4ccc5ccncc54)CC3)cn2)CC1"
  READOUT: "pIC50"
  MEASURED: 8.10
- COMPOUND: "CN1CCN(c2ncc(-c3cc(F)ccc3N3CCN(C(=O)CN4Cc5ccccc5C4=O)CC3)cn2)CC1"
  READOUT: "pIC50"
  MEASURED: 7.59
- COMPOUND: "CN1CCN(c2ncc(-c3cc(F)ccc3N3CCN(C(=O)CN4CCCCC4=O)CC3)cn2)CC1"
  READOUT: "pIC50"
  MEASURED: 7.03
- COMPOUND: "CC1CN(c2ccc(F)cc2-c2cnc(S(C)(=O)=O)nc2)CCN1C(=O)CN1Cc2ccccc2C1=O (centres unmarked)"
  READOUT: "pIC50"
  MEASURED: 6.61
- COMPOUND: "COc1ncc(-c2ccccc2N2CCN(C(=O)Cn3nc(C)c(Cl)c3C)CC2)cn1"
  READOUT: "pIC50"
  MEASURED: 8.00
- COMPOUND: "Cc1cc(C)n(CC(=O)N2CCN(c3ccccc3-c3cnc(N4CCC(S(C)(=O)=O)CC4)nc3)CC2)n1"
  READOUT: "pIC50"
  MEASURED: 8.22
- COMPOUND: "Cc1cc(C)n(CC(=O)N2CCN(c3ccc(F)cc3-c3cnc(N4CCCC4)nc3)CC2)n1"
  READOUT: "pIC50"
  MEASURED: 7.80
- COMPOUND: "COc1cc(NC(=O)c2cc(F)ccc2N2CCN(C(=O)Cn3nc(C)cc3C)[C@H](C)C2)ccn1"
  READOUT: "pIC50"
  MEASURED: 8.10
- COMPOUND: "COc1cc(NC(=O)c2cc(F)ccc2N2CCN(C(=O)Cn3nc(C)cc3C)[C@@H](C)C2)ccn1"
  READOUT: "pIC50"
  MEASURED: 7.92
- COMPOUND: "Cc1cc(C)n(CC(=O)N2CCN(c3ccc(F)cc3C(=O)Nc3nc4c(s3)CN(C)CC4)C[C@@H]2C)n1"
  READOUT: "pIC50"
  MEASURED: 7.92
- COMPOUND: "Cc1ocnc1C(=O)N(C)CC(=O)N1CCN(c2ccc(F)cc2C(=O)Nc2nc3c(s2)CN(C)CC3)C[C@H]1C"
  READOUT: "pIC50"
  MEASURED: 7.46
- COMPOUND: "Cc1cc(C)n(CC(=O)N2CCN(c3ccccc3-c3cnc(N4CCN(C)CC4)nc3)CC2)n1"
  READOUT: "pIC50"
  MEASURED: 7.40
- COMPOUND: "COc1cc(NC(=O)c2cc(F)ccc2N2CCN(C(=O)Cn3ccc4ccncc43)[C@H](C)C2)ccn1"
  READOUT: "pIC50"
  MEASURED: 8.05
- COMPOUND: "CC1CN(c2ccc(C(F)(F)F)cc2-c2cnc(S(C)(=O)=O)nc2)CCN1C(=O)CN1Cc2ccccc2C1=O (centres unmarked)"
  READOUT: "pIC50"
  MEASURED: 7.00
- COMPOUND: "COc1ncc(-c2ccccc2N2CCN(C(=O)Cn3ccc4ccnc(Cl)c43)CC2)cn1"
  READOUT: "pIC50"
  MEASURED: 7.80
- COMPOUND: "COc1ncc(-c2cc(F)ccc2N2CCN(C(=O)Cn3c(=O)[nH]c4ccccc43)CC2)cn1"
  READOUT: "pIC50"
  MEASURED: 7.89
- COMPOUND: "Cc1cc(C)n(CC(=O)N2CCN(c3ccc(F)cc3-c3cnc(S(C)(=O)=O)nc3)CC2)n1"
  READOUT: "pIC50"
  MEASURED: 6.56
- COMPOUND: "Cc1cc(C)n(CC(=O)N2CCN(c3ccccc3-c3cnc(C#N)nc3)CC2)n1"
  READOUT: "pIC50"
  MEASURED: 7.37
- COMPOUND: "CC1CN(c2ccccc2-c2cnc(N3CCOCC3)nc2)CCN1C(=O)Cn1ccc2cccnc21 (centres unmarked)"
  READOUT: "pIC50"
  MEASURED: 7.89
